Consider the following compounds; for each one, report its solubility kinetic.
# Condition Notes: buffer; pH 7.4; 200.0 µM
Express it in µg/mL; write the number only.

Entry under test: Cc1cccc(C(=O)NCC(=O)OCc2nc(N)nc(Nc3ccccc3C)n2)c1 . Its solubility kinetic was 53.8

Entry under test: NS(=O)(=O)c1ccc(NC(=O)COC(=O)Cn2cnc3ccccc3c2=O)cc1 . Its solubility kinetic was 18

Entry under test: CC(C)(C)C(=O)NC1CC2CCCC(C1)N2C(=O)Nc1ccccc1 (stereo not drawn) . Its solubility kinetic was 12.8

Entry under test: O=C(Nc1c[nH]c(=O)[nH]c1=O)c1cc([N+](=O)[O-])cc([N+](=O)[O-])c1 . Its solubility kinetic was 16.7

Entry under test: Cc1occc1C(=O)N1CCN(c2ccc(Cl)cc2)CC1 . Its solubility kinetic was 43.6

Entry under test: O=C(Nc1ccc2nc3n(c(=O)c2c1)CCCC3)c1ccccc1F . Its solubility kinetic was 48

Entry under test: Cc1cc(NC(=O)c2ccc3[nH]c(C)c(C)c3c2)ccn1 . Its solubility kinetic was 37.6

Entry under test: Cc1cc(N2CCN(C(=O)/C=C/C(=O)O)CC2)c2ccccc2n1 . Its solubility kinetic was 48.6

Entry under test: Cc1cc(=O)oc2cc(OC(C)C(=O)NC3CCCC3)ccc12 (stereo not drawn) . Its solubility kinetic was 44.6

Entry under test: Cc1ccc(CNC(=O)c2ccc(N(C)C)cc2)cc1 . Its solubility kinetic was 3.2

Entry under test: Cc1ccc(SCC(=O)Nc2ccc(N3CCOCC3)cc2)cc1C . Its solubility kinetic was 12.3

Entry under test: Cc1cc(C(=O)NCCc2ccccc2)c2cc(F)ccc2n1 . Its solubility kinetic was 14.9

Entry under test: O=C(Nc1ccccc1N1CCCCC1)c1ccc(OC(F)F)cc1 . Its solubility kinetic was 0.7

====

# Condition Notes: buffer; pH 7.4; 200.0 µM
Assay Endpoint: solubility kinetic (µg/mL)
Express it in µg/mL; write the number only.

Entry under test: Cc1ccc(-c2noc(CNC(=O)c3ccoc3C)n2)cc1 . Its solubility kinetic was 32.6

Entry under test: CCN(CC)Cc1oc(-c2ccccc2)cc1C(=O)O . Its solubility kinetic was 32.2

Entry under test: C=CCSc1nc2sc3c(c2c(=O)n1-c1ccc(C)cc1)CCN(C)C3 . Its solubility kinetic was 22.3

Entry under test: O=C(c1cc2c(s1)CCCC2)N1CCN(c2ccccc2)CC1 . Its solubility kinetic was 1.5

Entry under test: Cc1ccccc1NC(=O)Cn1c(=O)oc2ccccc21 . Its solubility kinetic was 14.4

Entry under test: CC1CC(C)CN(C(=O)COC(=O)c2ccc3ncsc3c2)C1 (stereo not given) . Its solubility kinetic was 44.9

Entry under test: Cc1ccc(/C=C2\C(=O)NC(=O)N2C)o1 . Its solubility kinetic was 21.4

Entry under test: Cc1ccc2[nH]c(=O)c(-c3noc(CC(C)C)n3)cc2c1 . Its solubility kinetic was 5.1

Entry under test: COc1ccc(-c2noc(=O)n2Cc2ccccc2F)cc1 . Its solubility kinetic was 29.6

Entry under test: Cc1c(Cl)cccc1NC(=O)C1CCCN(S(C)(=O)=O)C1 (stereo not given) . Its solubility kinetic was 7.3

Entry under test: COC(=O)Cn1c2nc3ccccc3nc2c2cccc(C)c21 . Its solubility kinetic was 0.2

Entry under test: COc1ccccc1C(C#N)c1cccc(Cl)n1 (stereo not given) . Its solubility kinetic was 38

Entry under test: Cc1ccc(CNC(=O)CCSCc2ccccc2F)cc1 . Its solubility kinetic was 11.8

Entry under test: Cc1ccc(C(C)C)cc1S(=O)(=O)Nc1cccnc1 . Its solubility kinetic was 3.5

Entry under test: COc1ccc(C(=O)n2cc(C(C)=O)c3ccccc32)cc1 . Its solubility kinetic was 1.3

Entry under test: Cc1[nH]c2ccccc2c1SCC(=O)N1CCCCC1 . Its solubility kinetic was 40.4

====

# Condition Notes: buffer; pH 7.4; 200.0 µM
Quick rule for you: solubility kinetic at 20 µg/mL or higher means rule met, lower means rule not met.

query: Exam item: decide whether the reported solubility kinetic for COc1ccc(NC(=S)Nc2ccccc2Cl)cn1 is at least 20 µg/mL.
result: rule met

query: Exam item: decide whether the reported solubility kinetic for C=CCN1C(=O)C2(OCCCO2)c2cc(C)ccc21 is at least 20 µg/mL.
result: rule not met

query: Exam item: decide whether the reported solubility kinetic for O=C(c1ccco1)N1CCN(c2ccc([N+](=O)[O-])cc2F)CC1 is at least 20 µg/mL.
result: rule not met

query: Exam item: decide whether the reported solubility kinetic for O=C(CSc1nnc(NC(=O)c2c(F)cccc2F)s1)NC1CC1 is at least 20 µg/mL.
result: rule met

query: Exam item: decide whether the reported solubility kinetic for Cc1cccc(OP(N)(=O)Oc2cccc(C)c2C)c1C is at least 20 µg/mL.
result: rule not met

query: Exam item: decide whether the reported solubility kinetic for CCCCC(=O)NNC(=O)N1c2ccccc2Sc2ccccc21 is at least 20 µg/mL.
result: rule met

query: Exam item: decide whether the reported solubility kinetic for O=C(O)CCCCCNC(=O)OCC1c2ccccc2-c2ccccc21 is at least 20 µg/mL.
result: rule not met

query: Exam item: decide whether the reported solubility kinetic for CC1(C)CC(=O)N(c2cccc(C(F)(F)F)c2)C(=O)C1 is at least 20 µg/mL.
result: rule not met

query: Exam item: decide whether the reported solubility kinetic for Cc1cc2c(c(=O)o1)C(c1ccc([N+](=O)[O-])o1)C(C#N)=C(N)O2 (configuration not stated) is at least 20 µg/mL.
result: rule met

query: Exam item: decide whether the reported solubility kinetic for CCCCc1cc(=O)oc2cc(OCC(=O)N3CCOCC3)ccc12 is at least 20 µg/mL.
result: rule not met

query: Exam item: decide whether the reported solubility kinetic for CCOc1ccc(S(=O)(=O)N2CCN(C(=O)c3ccc(C)c(S(=O)(=O)N4CCOCC4)c3)CC2)cc1 is at least 20 µg/mL.
result: rule not met

query: Exam item: decide whether the reported solubility kinetic for O=[N+]([O-])c1cc(CSC2=NCCN2)ccc1O is at least 20 µg/mL.
result: rule met

query: Exam item: decide whether the reported solubility kinetic for O=C(Nc1ccc(N2CCOCC2)c(S(=O)(=O)Nc2ccccc2Cl)c1)c1ccc(F)cc1 is at least 20 µg/mL.
result: rule not met

query: Exam item: decide whether the reported solubility kinetic for COc1ccc(CCNC(=O)c2ccc(C)s2)cc1OC is at least 20 µg/mL.
result: rule met

query: Exam item: decide whether the reported solubility kinetic for CP(=O)(O)CN1CCCCC1 is at least 20 µg/mL.
result: rule met

query: Exam item: decide whether the reported solubility kinetic for O=C(Nc1ccc(N2CCOCC2)cc1)c1c(F)cccc1Cl is at least 20 µg/mL.
result: rule met

query: Exam item: decide whether the reported solubility kinetic for CC(C)c1ccc(-n2ccnc2SCC(=O)O)cc1 is at least 20 µg/mL.
result: rule met

query: Exam item: decide whether the reported solubility kinetic for Cc1cc(OCC(=O)Nc2ccncc2)ccc1[N+](=O)[O-] is at least 20 µg/mL.
result: rule met

query: Exam item: decide whether the reported solubility kinetic for Cc1nn(CC(=O)NC2CCCC2)c(C)c1[N+](=O)[O-] is at least 20 µg/mL.
result: rule met

query: Exam item: decide whether the reported solubility kinetic for Cc1cc(C)c(C)c(S(=O)(=O)Nc2cccc(S(=O)(=O)Nc3ccccc3C(=O)O)c2)c1C is at least 20 µg/mL.
result: rule met

query: Exam item: decide whether the reported solubility kinetic for CN(Cc1ccc(F)cc1)Cc1nc(CCc2ccccc2)no1 is at least 20 µg/mL.
result: rule not met

query: Exam item: decide whether the reported solubility kinetic for CCNC(C(=O)c1c[nH]c2c(CC)cccc12)c1ccccc1 (configuration not stated) is at least 20 µg/mL.
result: rule met

query: Exam item: decide whether the reported solubility kinetic for COc1cc(OC)c(OC)cc1CNCc1ccc2c(c1)OCO2 is at least 20 µg/mL.
result: rule met

query: Exam item: decide whether the reported solubility kinetic for COc1cc(/C=C/[N+](=O)[O-])ccc1OC(=O)c1cc2ccccc2oc1=O is at least 20 µg/mL.
result: rule not met

query: Exam item: decide whether the reported solubility kinetic for CC(C)[C@H](NC(=O)c1ccc(Cl)c([N+](=O)[O-])c1)C(=O)O is at least 20 µg/mL.
result: rule met

query: Exam item: decide whether the reported solubility kinetic for CC(C)(C)OC(=O)N1Cc2ccccc2C[C@H]1C(=O)NC1CCCC1 is at least 20 µg/mL.
result: rule met

query: Exam item: decide whether the reported solubility kinetic for CCCCOc1ccc(CC2CCC(=O)NC2=O)cc1 (configuration not stated) is at least 20 µg/mL.
result: rule not met

query: Exam item: decide whether the reported solubility kinetic for O=[N+]([O-])c1ccccc1S(=O)(=O)N(CC1CO1)c1ccccc1 (configuration not stated) is at least 20 µg/mL.
result: rule met

query: Exam item: decide whether the reported solubility kinetic for CCN1CCN(c2nc(Nc3ccc(OC)cc3)nc(N)c2[N+](=O)[O-])CC1 is at least 20 µg/mL.
result: rule met

query: Exam item: decide whether the reported solubility kinetic for CCOc1cc(C(=O)Nc2ccc(S(=O)(=O)Nc3onc(C)c3C)cc2)cc(OCC)c1OCC is at least 20 µg/mL.
result: rule met

query: Exam item: decide whether the reported solubility kinetic for CC(=O)N1CCN(c2nc3ccc([N+](=O)[O-])cc3s2)CC1 is at least 20 µg/mL.
result: rule met

query: Exam item: decide whether the reported solubility kinetic for CCN1CCCC1CNC(=O)C(=O)NC(C)c1ccccc1 (configuration not stated) is at least 20 µg/mL.
result: rule met

query: Exam item: decide whether the reported solubility kinetic for COc1ccccc1CCn1cc(C#N)c(=O)[nH]c1=O is at least 20 µg/mL.
result: rule met

query: Exam item: decide whether the reported solubility kinetic for COc1ccc(C2c3c(noc3C)CC(C)(O)C2C(C)=O)cc1 (configuration not stated) is at least 20 µg/mL.
result: rule met

query: Exam item: decide whether the reported solubility kinetic for O=C(CSc1ncnc2sccc12)N1CCCCC1 is at least 20 µg/mL.
result: rule met

query: Exam item: decide whether the reported solubility kinetic for CCOc1ccc2c(c1)C(=O)C(=O)N2CC1COc2ccccc2O1 (configuration not stated) is at least 20 µg/mL.
result: rule not met

query: Exam item: decide whether the reported solubility kinetic for CNC(=O)Cn1c(C)cc(=O)c2cccc(OC)c21 is at least 20 µg/mL.
result: rule met

query: Exam item: decide whether the reported solubility kinetic for CCc1ccc(CN2CCN(c3ncccn3)CC2)cc1 is at least 20 µg/mL.
result: rule met

query: Exam item: decide whether the reported solubility kinetic for FC(F)Oc1ccc(-c2c[n+]3c(n2-c2ccccc2)CCCCC3)cc1 is at least 20 µg/mL.
result: rule met

query: Exam item: decide whether the reported solubility kinetic for Cn1c(C(=O)N[C@@H](C(=O)O)c2ccccc2)cc2cc(F)ccc21 is at least 20 µg/mL.
result: rule met

query: Exam item: decide whether the reported solubility kinetic for Cc1ccc(S(=O)(=O)NC2CC2)cc1[N+](=O)[O-] is at least 20 µg/mL.
result: rule met

query: Exam item: decide whether the reported solubility kinetic for CN(C)c1ccc(/C=C2\SC(N3CCCCC3)=NC2=O)cc1 is at least 20 µg/mL.
result: rule not met

query: Exam item: decide whether the reported solubility kinetic for CC(C)N(Cc1ccccc1)C(=O)CCc1ccccc1 is at least 20 µg/mL.
result: rule met

query: Exam item: decide whether the reported solubility kinetic for NC(=O)Cn1c(-c2nonc2N)nc2ccccc21 is at least 20 µg/mL.
result: rule met

query: Exam item: decide whether the reported solubility kinetic for COc1ccc(OC)c(NC(=O)CN2c3cccc4cccc(c34)S2(=O)=O)c1 is at least 20 µg/mL.
result: rule not met

query: Exam item: decide whether the reported solubility kinetic for O=CN1CCN(C(=O)c2cc3cc(Cl)ccc3[nH]2)CC1 is at least 20 µg/mL.
result: rule met

query: Exam item: decide whether the reported solubility kinetic for NC(=O)COc1ccc2oc(-c3ccccc3)cc(=O)c2c1 is at least 20 µg/mL.
result: rule not met
